Assay: collision cross section in nitrogen (drift tube, single-field); higher = larger gas-phase ion size;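 note: chemical standards at 10 µM analysed by drift tube IMS-QTOF MS in about 3.95 torr nitrogen, mean of duplicate injections differing ≤1%, mass error below 10 ppm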
Settings: ion type: [M-H]; ion source: ESI; ion mode: Negative
Counter-ions that a name gives are not always drawn.
readout-kind: collision cross section in nitrogen (Å²)
API: value field is a number in Å²; no unit string.

INPUT: Give the measured collision cross section in nitrogen of `Cc1ccc(N)cc1S(=O)(=O)O` .
OUTPUT: 137.7

INPUT: Give the measured collision cross section in nitrogen of `O=C1c2ccccc2C(=O)c2c(O)c(O)cc(O)c21` .
OUTPUT: 149

INPUT: Give the measured collision cross section in nitrogen of CCOc1nc2cccc(C(=O)OC(C)OC(=O)OC3CCCCC3)c2n1Cc1ccc(-c2ccccc2-c2nnn[nH]2)cc1 (stereo not drawn) .
OUTPUT: 244

INPUT: Give the measured collision cross section in nitrogen of CCN(CC)C(=O)c1cc(S(=O)(=O)Cc2ccccc2)c(N2CCC(c3ccccc3)CC2)cc1N(CC)CCN(C)C [HMR1171 trifluoroacetate (1:1)] .
OUTPUT: 250

INPUT: Give the measured collision cross section in nitrogen of `O=C(O)c1ccc(S(=O)(=O)O)cc1C(=O)O` .
OUTPUT: 145.3

INPUT: Give the measured collision cross section in nitrogen of `CCc1nn(C)c(C(=O)NCc2ccc(C(C)(C)C)cc2)c1Cl` .
OUTPUT: 194

INPUT: Give the measured collision cross section in nitrogen of `c1ccc2[nH]nnc2c1` .
OUTPUT: 118.9

INPUT: Give the measured collision cross section in nitrogen of CC(=O)C(C)=CC1C(C)=CCCC1(C)C (stereo not drawn) .
OUTPUT: 155

###

Below is a list of entries, each paired with its recorded collision cross section in nitrogen value.
Test: collision cross section in nitrogen (drift tube, single-field); higher = larger gas-phase ion size
Settings: ion type: [M+H]; ion source: APCI; ion mode: Positive
API: value field is a number in Å²; no unit string.

>  <molecule>
Nc1ccc(Nc2ccccc2)cc1 [N-Phenyl-1,4-benzenediamine]

>  <unit-abbrev>
Å²

>  <assay-value>
143.1

$$$$
>  <molecule>
O=C1OC2(c3ccccc31)c1cc(I)c(O)c(I)c1Oc1c2cc(I)c(O)c1I [C.I. Solvent Red 140]

>  <unit-abbrev>
Å²

>  <assay-value>
211.8

$$$$
>  <molecule>
CCNc1nc(Cl)nc(NC(C)(C)C#N)n1 [Cyanazine]

>  <unit-abbrev>
Å²

>  <assay-value>
155.6

$$$$
>  <molecule>
COc1ccc(CC#N)cc1 [4-Methoxyphenylacetonitrile]

>  <unit-abbrev>
Å²

>  <assay-value>
127.3

$$$$

Field: next molecule
INPUT: Give the measured collision cross section in nitrogen of `O=C(N[C@H]1CN2CCC1CC2)c1ccc2c(c1)OCCO2` .
OUTPUT: 175.9

###

Assay: collision cross section in nitrogen (drift tube, single-field); higher = larger gas-phase ion size
Conditions: ion type: [M-H]; ion source: ESI; ion mode: Negative
Below is a list of entries, each paired with its recorded collision cross section in nitrogen value.
API: value field is a number in Å²; no unit string.

>  <compound>
CCCCCCCCC=CCCCCCCCC1=NCCN1CCO

>  <collision cross section in nitrogen [Å²]>
196.6

$$$$
>  <compound>
CCCCC(CC)COP(=O)(O)O (stereo not given) [2-Ethylhexyl dihydrogen phosphate]

>  <collision cross section in nitrogen [Å²]>
150.7

$$$$
>  <compound>
O=S(=O)(O)C(F)(F)C(F)(F)C(F)(F)C(F)(F)F

>  <collision cross section in nitrogen [Å²]>
133.8

$$$$

INPUT: Give the measured collision cross section in nitrogen of CN1C(=O)N(c2ccccc2Br)Cc2cnc(Nc3ccc4c(c3)OCC(CO)O4)nc21 (stereo not given) .
OUTPUT: 220.2

INPUT: Give the measured collision cross section in nitrogen of `CC(C)(C)c1n[nH]c(=O)n(N)c1=O` .
OUTPUT: 139.3

###

Below is a list of entries, each paired with its recorded collision cross section in nitrogen value.
Experiment: collision cross section in nitrogen (drift tube, single-field); higher = larger gas-phase ion size
Conditions: ion type: [M+Na]; ion source: ESI; ion mode: Positive
API: value field is a number in Å²; no unit string.

>  <compound>
c1cc(OCC2CO2)ccc1Cc1ccc(OCC2CO2)cc1 (centres undefined) [Bis[4-(glycidyloxy)phenyl]methane]

>  <readout-kind>
collision cross section in nitrogen

>  <assay-value>
169

$$$$
>  <compound>
CC(C)c1nnc2ccc(-c3ocnc3-c3cc(F)ccc3F)cn12

>  <readout-kind>
collision cross section in nitrogen

>  <assay-value>
196.3

$$$$

INPUT: Give the measured collision cross section in nitrogen of `CC(=O)c1ccc2c(c1)[C@H](NC(=O)c1ccc(F)cc1)[C@@H](O)C(C)(C)O2` .
OUTPUT: 194.4

INPUT: Give the measured collision cross section in nitrogen of CCCCCCCCCCCC(=O)OCC(O)CO (centres undefined) .
OUTPUT: 176.3

INPUT: Give the measured collision cross section in nitrogen of `Cc1oc(-c2ccccc2)nc1CCOc1cccc2c1ccn2CCC(=O)O` .
OUTPUT: 186.3

INPUT: Give the measured collision cross section in nitrogen of `Cc1ncc([C@@H](CCCCCCc2ccc3c(n2)NCCC3)CC(=O)O)cn1` .
OUTPUT: 199.7

INPUT: Give the measured collision cross section in nitrogen of CCCCCCCCCCCC(=O)N(CC)CC [N,N-Diethyldodecanamide] .
OUTPUT: 179.4

INPUT: Give the measured collision cross section in nitrogen of CC(C)COP(=O)(OCC(C)C)OCC(C)C [Triisobutyl phosphate] .
OUTPUT: 183.6

INPUT: Give the measured collision cross section in nitrogen of CCCCCCCCOC(=O)c1ccc(C(=O)OCCCCCCCC)c(C(=O)OCCCCCCCC)c1 [Tri-n-octyl trimellitate] .
OUTPUT: 263.7

###

Experiment: collision cross section in nitrogen (drift tube, single-field); higher = larger gas-phase ion size
Conditions: ion type: [M+H]; ion source: APCI; ion mode: Positive
Counter-ions that a name gives are not always drawn.
Label 0 (no) if collision cross section in nitrogen falls below 200 Å²; label 1 (yes) in every other case.

>  <compound>
CN(C)C(=O)NC1(c2ccccc2)CCN(CC[C@@]2(c3ccc(F)c(F)c3)CN(C(=O)c3ccccc3)CCO2)CC1

>  <class-assignment>
1 (yes)

$$$$
>  <compound>
O=P1(N(CCCl)CCCl)NCCCO1 (stereo not drawn) [Cyclophosphamide]

>  <class-assignment>
0 (no)

$$$$
>  <compound>
Cc1ccc(S(=O)(=O)NC(=O)NN2CCCCCC2)cc1 [Tolazamide]

>  <class-assignment>
0 (no)

$$$$
>  <compound>
COC(=O)C(C)N(C(=O)c1ccco1)c1c(C)cccc1C (stereo not drawn)

>  <class-assignment>
0 (no)

$$$$
>  <compound>
Cc1nc(-c2ccc3c(c2)CCN(CCC2CCC(NC(=O)/C=C/c4ccc(F)cc4)CC2)CC3)no1 (stereo not drawn)

>  <class-assignment>
1 (yes)

$$$$
>  <compound>
Cc1cc(C2CC2)nc(Nc2ccccc2)n1

>  <class-assignment>
0 (no)

$$$$
>  <compound>
CN(C)CCCN1c2ccccc2CCc2ccc(Cl)cc21 [Clomipramine hydrochloride]

>  <class-assignment>
0 (no)

$$$$
>  <compound>
O=[N+]([O-])c1ccc2[nH]cnc2c1

>  <class-assignment>
0 (no)

$$$$
>  <compound>
CNC(=O)[C@H]1O[C@@H](n2cnc3c(NCc4cc(Cl)ccc4OCc4cc(C)no4)ncnc32)[C@H](O)[C@@H]1N

>  <class-assignment>
1 (yes)

$$$$
>  <compound>
COc1ccc2c(c1)[C@]13CCCC[C@@H]1[C@H](C2)N(C)CC3 [Dextromethorphan hydrobromide]

>  <class-assignment>
0 (no)

$$$$

INPUT: Is reported collision cross section in nitrogen greater than or equal to 200 Å² here: O=C(N[C@H]1CN2CCC1CC2)c1cc2ccoc2cn1 [(R)-N-(Quinuclidin-3-yl)furo(2,3-C)pyridine-5-carboxamide]
OUTPUT: 0 (no)

INPUT: Is reported collision cross section in nitrogen greater than or equal to 200 Å² here: `COCCOC[C@H](CC1(C(=O)N[C@H]2CC[C@@H](C(=O)O)CC2)CCCC1)C(=O)Oc1ccc2c(c1)CCC2`
OUTPUT: 1 (yes)

###

Assay: collision cross section in nitrogen (drift tube, single-field); higher = larger gas-phase ion size
Conditions: ion type: [M+Na]; ion source: ESI; ion mode: Positive
readout-kind: collision cross section in nitrogen (Å²)
API: value field is a number in Å²; no unit string.

INPUT: Give the measured collision cross section in nitrogen of `O=C(NS(=O)(=O)/C=C/c1cccs1)c1ccc(F)cc1Br` .
OUTPUT: 189

INPUT: Give the measured collision cross section in nitrogen of `CCOc1ccc(NC(=O)OC(C)C)cc1OCC` .
OUTPUT: 177.1

INPUT: Give the measured collision cross section in nitrogen of COc1cc(OC)nc(NC(=O)NS(=O)(=O)c2ncccc2OCC(F)(F)F)n1 [Trifloxysulfuron-sodium] .
OUTPUT: 194.5

INPUT: Give the measured collision cross section in nitrogen of CC(C)(c1ccc(OCC2CO2)cc1)c1ccc(OCC2CO2)cc1 (centres undefined) .
OUTPUT: 176.7
